Each recorded value in this set is attributed to the supplement of paper PMC10724198.

# Test system: Saccharomyces cerevisiae
# procedureSummary: protein stability index of tFT-peptide fusion (C-terminal peptide) (PSI (0-1 scale)); higher = more stable (slower turnover)
# conditionDescription: genetic background: wild type; temperature: 30 C
Here the recorded protein stability index is given for each entry.
The answer should be written as a number, with no unit following it.

Q: Identify the measured protein stability index of `KQPGAGGGEVGG` for Saccharomyces cerevisiae.
Result: 0.655

Q: Identify the measured protein stability index of `FSSCPPFRPFPL` for Saccharomyces cerevisiae.
Result: 0.787

###

# Tested on: Saccharomyces cerevisiae
# procedureSummary: protein stability index of tFT-peptide fusion (C-terminal peptide) (PSI (0-1 scale)); higher = more stable (slower turnover)
# conditionDescription: genetic background: wild type; temperature: 30 C
measurementLabel: protein stability index
The answer should be written as a number, with no unit following it.

Reference set (10 entries):
1) YKNKVGVGIPFI [STE14 C-terminal 12 aa] :: 0.706
2) EMLGDKVNKKGI [SOK1 C-terminal 12 aa] :: 0.67
3) KVESSDCSFEFA [VID24 C-terminal 12 aa] :: 0.696
4) QQLQSPTAPPTE [COX14 C-terminal 12 aa] :: 0.694
5) ILDLDPRTEAYC [YGL260W C-terminal 12 aa] :: 0.691
6) AYEFDGDKVIVG [RIP1 C-terminal 12 aa] :: 0.685
7) TGMGAAAIFIKE [POT1 C-terminal 12 aa] :: 0.752
8) DTVKILTELFNL [SEC53 C-terminal 12 aa] :: 0.732
9) LCHSSHIPETLK [MSN1 C-terminal 12 aa] :: 0.663
10) EEESTTSENLHF [RSM25 C-terminal 12 aa] :: 0.69

Q: # input sequence: DKKLEEQLRDLV [MTC3 C-terminal 12 aa] ; wanted: its protein stability index
Result: 0.689

Q: # input sequence: QTLAPVPYETFI [RPL21A C-terminal 12 aa] ; wanted: its protein stability index
Result: 0.728

Q: # input sequence: PEMIEELDIDDE [GPD2 C-terminal 12 aa] ; wanted: its protein stability index
Result: 0.658

Q: # input sequence: SSSSNFLEESSS [YER148W-A C-terminal 12 aa] ; wanted: its protein stability index
Result: 0.686

Q: # input sequence: AKYSKKKNNKNK [DEG1 C-terminal 12 aa] ; wanted: its protein stability index
Result: 0.668

Q: # input sequence: YWALGVALTGSK [YDR417C C-terminal 12 aa] ; wanted: its protein stability index
Result: 0.693

Q: # input sequence: HRSFFKDIIPEL [KIN82 C-terminal 12 aa] ; wanted: its protein stability index
Result: 0.693
